# Protocol notes: soluble fraction after stress (log2 fold change); higher = more stays soluble; pooled small domains, quantitative proteomics;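 note: 20 min heating vs room temperature control held 20 min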
# Setup conditions: stress: 75 degC
Entries are sorted into classes by soluble fraction (log2) as follows: lower bin (below -1), middle bin (-1 to below -0.04), upper bin (-0.04 or more)

Here's what some known entries look like.
Primary sequence	Category label
HMHPVTGRIGTVTAANGLNLRADSSEYANVVATLGYGVDVTVTGERINGFYPVRVGTLSGYVSADYVSFNS	lower bin
HMDYADISYKIFMNHIKNGQVERVELSGDPRIMGKLKDGTYFVTDNPRTENFKEFLLLNNVQVIETN	upper bin
HMHFENEETFVLPLVREGFSEQQQLEMVDRLLFDANTDNPRWIIDWMASELPSTQRELLLDLEKRLAEVRS	middle bin
HMGTVSSGSSSTDTPFSLGEIVRHKVFGEGVVLSIEGQGDASRIQINFNTAGTKWLVTAYADLEK	lower bin
HMTTTYTVPKVTGMTLEEAREDPDVVGRFTIVEGEKVTSDTVPVGQIVSQEPAAHRQVGEDGLTITVNIS	upper bin
HMDGVTEYTVKSGDSFSAIINKHYNVNYDEKLMQAVAAYNNIEDMNKLQLGQIIKLPPKEQLNL	middle bin
HMQSREISYSDFVASVERGEVATVILDGENIRFKGGDNVEYVTVRPADTNVTDLLIENQVVVRAEK	upper bin
HMQIIETTVGRVLFNEKVPEAAGYINEVLTKKSLRDIIHGILKKTSVPETAAFLDEIKSLGYNFAF	upper bin

Challenge: Kindly state the category for this sequence: HMPDLQDTLYRLVPEDGSAIGNQSLREKFLSTAKDASDADFEAARDGLVEQGKLTKGKGRGGSVRRAEP
Response given: upper bin

Challenge: Kindly state the category for this sequence: HMDLQAAWLQTVRHLLAHTEDVGDRFAEEARRIHYGEEPHRGIRGQATPEERLALREEGIETMSIPV
Response given: middle bin

Challenge: Kindly state the category for this sequence: HMETKPTELMLEVHELRIGMFVHLDLGWMDHPFPLNRFKISTNSQIEQIKGLRLKQVKVMTALSDPTALS
Response given: lower bin

Challenge: Kindly state the category for this sequence: HMSDPEAFIRQTVAAAEPEGIALSVLGKRVRGKFRTFKLRDLGYAQFRPYLGDLDGIKVEQRDGQSYARLD
Response given: lower bin

Challenge: Kindly state the category for this sequence: HMGMTNRIKELRKAKGYRQEDLAAALGVSRQTIIAVENNKYNPTLELAMKLARHLQTTVEELFQL
Response given: lower bin

Challenge: Kindly state the category for this sequence: HMKGPAFAKIDLTQLPAGLTSFLNTNAAGFKLDYAVAITKDSVIIEYHVGVTIGTAKKEFHLDPNFQLLP
Response given: middle bin

Challenge: Kindly state the category for this sequence: HMYMWQVEDLLRANELDIENIKKTIIDHYQLDDAQKSELTRWYEDLINMMRLEGVTKEGHLQINK
Response given: lower bin

Challenge: Kindly state the category for this sequence: HMRKLHFVMSEIYEDHPWIGSKLQDVFLPKDIRVVLVERDSKQFMPNGQTLFELGDRLTLSALHYDPA
Response given: lower bin

---

# Protocol notes: soluble fraction after stress (log2 fold change); higher = more stays soluble; pooled small domains, quantitative proteomics
# Setup conditions: stress: 75 degC
# Lookup of reported soluble fraction (log2) keyed by entry
Output spec: single numeric token, no unit.

Study these solved cases before continuing.
Primary sequence	soluble fraction (log2)
HMGALAITPDFVGQTREEAERFLRDLDLSFDIGGKGDRILRQEPVAGQRMNLDQPMKLWVGSMNA	0.245
HMINKDNLIEEILKFINTKIADISSNNPLFDIVAKPYISKVVTNNVSKLDKALSLIADDKGMVDADGLLT	-0.129
HMDSLELADEVGRVSEALQELRPHQREVLELSLVHGRSHQQISEKTGLALGTVKSHARRGLMRVREMLGV	-0.381
HMDSINIDEETAKLGPNAPQIIDGIKKWGQGLVAKGVWSDEDFDEFKVFAATSSGINALNKIRKYY	0.188
HMESAVDVFRSILKEKGVTEEEVRQVVAARGKYTLETPIDDYPNEFLYGYVIRYWDQIFDIIQQSREAK	-1.06

Here's the next entry for you.
Challenge: Sample HMSTNYVQVLRAALNGVSGRKLAQQYRVSRDTVAILLRQAKIQGWQRAEDLENITEEDLVALLSG — what was its soluble fraction (log2)?
Response given: -2.43

---

# Protocol notes: soluble fraction after stress (log2 fold change); higher = more stays soluble; pooled small domains, quantitative proteomics
# Setup conditions: stress: 75 degC
# Lookup of reported soluble fraction (log2) keyed by entry
Output spec: single numeric token, no unit.

Primary sequence	Observation type	Reported result
HMREPIPVPSRPIRAGDLVEIPGTNRPAEVTAVKGDRLVLKAGVLSMTVKNDEVRLIEDDERAAM	soluble fraction (log2)	0.505
HMDEFEEGVITYFNSEKGFGFIRESKTKQSVFVHSKQLSSPVQLNDKVKFIVNKGLKGLEATEVSVI	soluble fraction (log2)	-0.818
HMQSEISRIGRILKERRLQLGYTQEYAAEKAGISYSYYTKIERGQQLPSLEVAMVLSKTFSLSMDRWL	soluble fraction (log2)	-4.78

Challenge: Sample HMSVTSEIGAKIKYFRKSKHFSLQEMADLLYKSKSTLSKYENGQISIDIETLYAIAKVLGVHVEQLLYSEP — what was its soluble fraction (log2)?
Response given: -5.12

Challenge: Sample HMTGVPYLVRVKITDLHIRSGPGTNYASKGFIAPGAYTIVEESTGQGAALWGKLKSGKGWIALGYTEK — what was its soluble fraction (log2)?
Response given: -2.13

---

# Protocol notes: soluble fraction after stress (log2 fold change); higher = more stays soluble; pooled small domains, quantitative proteomics
# Setup conditions: stress: 75 degC
# Lookup of reported soluble fraction (log2) keyed by entry

Study these solved cases before continuing.
Primary sequence	soluble fraction (log2)
HMPSYYKELQNYSPENPVVKKRKVHPDVVNAIKYLAEITDGNPMLIKAYAQMILAHVFTTMPLIDKSV	-0.00519
HMLTTMSSQWKPSLDAIEILEKSGIAYSFIEDAIPEFVLYWRERGISHGAWNTKFVEHIRKQWAKFEAS	-1.73
HMEWTDIPTHKVPNVVGKSVEEAKKKLSKFTIEYSGTGEKVVAQSPDAGEKLEEGGTVRLLL	-0.136
HMRFDADELQKAYDLFDADENTPFKTIKQAYYALARRHHPDKNGDQEYFKVINNAFQLIQEHRRRRDN	-0.437
HMGKAMIDWEREQSILRILLRQKALTTEQAREVYQDGMREDLSALEMGVQRGYFTHEQLREATGGE	-0.278

Challenge: Sample HMIELDRTNLLGVFGPKSRPYALLMLSNGEMIKISIGDQFFGWRVYGIDEKSIQVQNGTKQEILRIP — what was its soluble fraction (log2)?
Response given: -3.91

Challenge: Sample HMEKTKLPNLVDFTYRQAEALLQTHGLKVGKVERVPDVGQTVIKAKYKGKVISWGTELNKGEKIDLVIGKG — what was its soluble fraction (log2)?
Response given: -0.542

---

# Protocol notes: soluble fraction after stress (log2 fold change); higher = more stays soluble; pooled small domains, quantitative proteomics
# Setup conditions: stress: 75 degC
# Lookup of reported soluble fraction (log2) keyed by entry
Output spec: single numeric token, no unit.

Primary sequence	soluble fraction (log2)
HMILVLKPGAPEDLKNELIHDIEKMGLRVHVSVGEGTTIIGLIGDTSKISKYTFSSYEIVSNVLRVT	-0.188
HMVSPEVEMLRAAVETMSERQKQVYELHYLRGFNVKETAAILGMSSPTVTAHKKRIMEIIKKFFE	-1.46

Challenge: Sample HMQYDALVLNLLQEKNLTSESLKDAQRAFAKSHNLSTLPSKSQILQAYFQLLEQGKIEKNPDFELLL — what was its soluble fraction (log2)?
Response given: -0.394

Challenge: Sample HMEIKDQADAYGKMEPASAAAILSEMTNDLTLVAKILDSMQTSKSALILQNMKPTTAAQVTTKMTAMK — what was its soluble fraction (log2)?
Response given: 0.0474

Challenge: Sample HMGDVKLNAIYNFLKEFSALNGFPPSVREIGAKFGIKSTSTVHYYLEKLKQSGVIQQEENKKRAVVIN — what was its soluble fraction (log2)?
Response given: -1.32

Challenge: Sample HMEVFTPSEANVAEAREILAAMATAKANGEGATVYKGRLVDIASIKQAEVIVRQSEMIQSAH — what was its soluble fraction (log2)?
Response given: 0.696

Challenge: Sample HMRMLLKELLIQYEVKNDKSHVEVAKEVGVSLSTYYRWLNGESLHLKKRTIDRLSEVLHYDINQVVEES — what was its soluble fraction (log2)?
Response given: -2.52

---

# Protocol notes: soluble fraction after stress (log2 fold change); higher = more stays soluble; pooled small domains, quantitative proteomics
# Setup conditions: stress: 75 degC
Kind request: treat -0.4 as inclusive, so soluble fraction (log2) at -0.4 or higher is class 1, anything lower is class 0.

Challenge: Check if soluble fraction (log2) >= -0.4 (inclusive). Item: HMTPPAQQPHEGLPTDETATDAKTLVQKSRWWLEEEQRQREAGNTAYAERIRLALIQLLYRAERA
Response given: class 0

Challenge: Check if soluble fraction (log2) >= -0.4 (inclusive). Item: HMSMPDERMLTSWMMARVKAAGKTMTRDAWNEFFERSNDSMDHMDMEMEKLLSYVYDKDGITLEDVEA
Response given: class 1

Challenge: Check if soluble fraction (log2) >= -0.4 (inclusive). Item: HMIKKLDIEPIIKSVVDDFNNIYKLKRGITISYLNDGKNKYFINGIENRIEQIIANLLDNSISFSEDNKDV
Response given: class 1

Challenge: Check if soluble fraction (log2) >= -0.4 (inclusive). Item: HMDMQMPIMNGLEFLERINLTLDDNFSIIVLTGKIEDKSIEKSFELGINAYLRKPFNIYALLGIVRQN
Response given: class 1

Challenge: Check if soluble fraction (log2) >= -0.4 (inclusive). Item: HMNDPFVILGVSKDASQSEILEAYKQKRAYYQERVFDEGDEGAQAARMLTQLDDAYQQAMELSHES
Response given: class 1

Challenge: Check if soluble fraction (log2) >= -0.4 (inclusive). Item: HMDPPVDLTPREQQVLSRIALGMSDKAIAAELGVSHQTVRNHVARIYAKIKVHSRSQAIVWAREKGIP
Response given: class 0

Challenge: Check if soluble fraction (log2) >= -0.4 (inclusive). Item: HMKLSLKTQVKEYLLSYIRDKKLQPGDRLLTQRELAEMLHTSQKVAQMALNSLEEEGIIIRRLGSGSFLAR
Response given: class 0

Challenge: Check if soluble fraction (log2) >= -0.4 (inclusive). Item: HMFDMLGDQIKKYRKEKKMSQEELAIPLNVVRQTVSKWENNLSVPDAELLIRLAEVLEISVAELLGT
Response given: class 1

Challenge: Check if soluble fraction (log2) >= -0.4 (inclusive). Item: HMHPEQTLEKIVDISAELFAKKGYEQTSIQDILDATGLSKGGLYHHFKSKEEILEAVMQKRVQY
Response given: class 1

Challenge: Check if soluble fraction (log2) >= -0.4 (inclusive). Item: HMFPDLTGDELRIVDLLNTANDLQVNIITAKTNLPISRVTSLLFQLEMKGVVKPLAGGMYHLLG
Response given: class 0

Challenge: Check if soluble fraction (log2) >= -0.4 (inclusive). Item: HMAFKNGLLQTSKKVTLVRKVDGVTMRFDSLRAASVFLGRNKGYLSNVIKNGRTLDNYEIVVGE
Response given: class 0

Challenge: Check if soluble fraction (log2) >= -0.4 (inclusive). Item: HMLSSAAAIDRILAGGTAAMNHRQFDAALTSFNTVIEMRPDFAEGWNKRATLYYLIGEYERSIADVERTLA
Response given: class 1

Challenge: Check if soluble fraction (log2) >= -0.4 (inclusive). Item: HMGRKIDDPSSMTGAEKAAVILLALGDEQRQLWEMMDDEEIRVVSQAMVNLGNVTSGAVEKLIMEFVGSMS
Response given: class 1

Challenge: Check if soluble fraction (log2) >= -0.4 (inclusive). Item: HMAVTNLTAKQISDTRWRVTWDSTLASPTYYVYRDGLLMMQTRQELYEFDAARGEQVQIDVLDDMAAAPAE
Response given: class 0

Challenge: Check if soluble fraction (log2) >= -0.4 (inclusive). Item: HMDENILKTRIEDLDLSVRTIKALTGASIRTVSGLARKKESDLLEISGLGDKGIQEIKRALGSLGITL
Response given: class 0

Challenge: Check if soluble fraction (log2) >= -0.4 (inclusive). Item: HMRQIMIIVLKSTATKEDSLLFKNKLEQEYGVKVNEWTGVESTVLGLIGDTTKIDIDYISAQDIVESVKRV
Response given: class 0

Challenge: Check if soluble fraction (log2) >= -0.4 (inclusive). Item: HMGVGVPVTLLLEKLGEDTLSAQQIMERLGLKSRASFRKVYLVPALEQKLIEMEFPDKPNSSKQRYRR
Response given: class 0
